Where a name gives a salt, the structure may show the parent alone.
Hi! Could you tag entries with melting point below 200 °C as criterion met, and those at or above as criterion not met? Much appreciated.

COc1cc(C2c3cc4c(cc3[C@@H](NC(=O)NCCCNCCCCNCCCN)[C@H]3COC(=O)[C@H]23)OCO4)cc(OC)c1O (some centres unmarked) (as salt: hydrochloride) [Compound 48]    criterion met
COc1cc(C2c3cc4c(cc3[C@@H](NC(=O)CCCN)[C@H]3COC(=O)[C@H]23)OCO4)cc(OC)c1O (stereo in doubt) (as salt: hydrochloride)    criterion not met
COc1cc(C2c3cc4c(cc3[C@@H](NS(=O)(=O)CCNCCCNCCCCNCCCN)[C@H]3COC(=O)[C@H]23)OCO4)cc(OC)c1O (some centres unmarked) (as salt: hydrochloride)    criterion met

Determine whether this compound shows melting point lower than 200 °C (ties excluded): COc1cc(C2c3cc4c(cc3[C@@H](NC(=O)CCCN(C)C)[C@H]3COC(=O)[C@H]23)OCO4)cc(OC)c1O (stereo in doubt) (as salt: hydrochloride)
criterion met

Consider COc1cc(C2c3cc4c(cc3[C@@H](NC(=O)NCCCNCCCNCCCCNCCCN)[C@H]3COC(=O)[C@H]23)OCO4)cc(OC)c1O (stereo in doubt) . Does its melting point lie strictly below 200 °C?
criterion not met

The measurements presented in this section are drawn from patent US8492567B2.
